- protocol: DUX4 transcriptional activity inhibition in cells – 293T cells, Gaussia and Italica luciferase, primary screen (AID 1224904);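 note: 0% = median of neutral control wells and -100% = median of positive control wells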
- reported conditions: 293T-iDUX4 ZSCAN4-Gaussia luciferase reporter, 24 h; concentration not given here
The whole screen tested about 37,000 compounds, of which about 290 (0.78%) were called active. Roughly 10% stayed inconclusive and do not appear here.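 Rule for the calls: active = mean inhibition of at least 10% in the main channel, exceeding the control channel by a set limit; inconclusive = inhibition of 10% or more but channel gap under a set limit; inactive = mean inhibition below 10%.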 This is one part of a sample in which actives are shown more often than they occur.
Your response should consist of one outcome taken from yes (1) = active, no (0) = inactive

For "COc1ccccc1C#Cc1ccc([C@H]2[C@@H](C#N)N(C(=O)C3CCCCC3)[C@@H]2CO)cc1" , what call appears in the results of this test?
no (0)

Try "O=C(c1ccccc1F)N1C[C@@H]2[C@H](c3ccccc31)[C@H](CO)N2C(=O)C1CCCC1" next.
no (0)

Moving on to the next compound: "COc1ccc(S(=O)(=O)Nc2ccc3c(c2)C(=O)N([C@@H](C)CO)C[C@@H](C)[C@H](CN(C)C(=O)CCC(F)(F)F)OCCCC[C@H](C)O3)cc1"
no (0)

Also "O=C(C[C@@H]1CC[C@H]2[C@@H](COC[C@@H](O)CN2C(=O)Nc2ccc(Cl)cc2)O1)NC1Cc2ccccc2C1" , if possible.
no (0)

And for "C[C@@H](O)C#Cc1ccc([C@@H]2[C@H]3CN(S(=O)(=O)c4ccccc4)CCCCN3[C@H]2CO)cc1" ?
no (0)

Continue with "CCC(=O)N(C)C[C@H]1[C@H](c2ccc(-c3ccccc3F)cc2)[C@@H](CO)N1C(C)=O"
no (0)

Subsequent entry: "CNC[C@H]1Oc2ncc(C#Cc3ccccc3F)cc2C(=O)N([C@H](C)CO)C[C@H]1C"
no (0)

Same question for "COc1ccc(S(=O)(=O)N2CCCCN3[C@H](CO)[C@@H](c4ccc(C#CC(C)C)cc4)[C@H]3C2)cc1" please.
yes (1)

Note, next up: "CN(C)CC#Cc1ccc([C@@H]2[C@H](CO)N3CCCCN(C(=O)Nc4ccc(F)cc4)C[C@@H]23)cc1"
no (0)

Record: "O=C([C@H]1[C@H](CO)[C@H]2Cn3c(cccc3=O)[C@@H]1N2Cc1cocn1)N1CCCCC1"
no (0)

---

- protocol: DUX4 transcriptional activity inhibition in cells – 293T cells, Gaussia and Italica luciferase, primary screen (AID 1224904);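 note: 0% = median of neutral control wells and -100% = median of positive control wells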
- reported conditions: 293T-iDUX4 ZSCAN4-Gaussia luciferase reporter, 24 h; stronger effect = lower value; concentration not given here
Screen size: about 37,000 compounds; about 290 (0.78%) were called active. Not shown: some 10% with an inconclusive outcome. The sample holds actives, similar compounds and a random draw of the others, so the mix is not that of the screen.
measured metric: activity change, negative = inhibition (%)
Answer format: numeric, % implied, no suffix.

Item under review: "O=C(C[C@@H]1CC[C@@H]2[C@H](COC[C@H](O)CN2CC2CCOCC2)O1)NCC1CCCCC1" . Reported activity change, negative = inhibition?
3.21

Another compound to check: "CO[C@H]1CN(C)C(=O)c2ccc(NC(=O)Nc3ccccc3)cc2OC[C@@H](C)N(C(=O)CC2CC2)C[C@@H]1C"
-6.56

What do you have for "COc1ccc(C#Cc2ccc3c(c2)[C@H]2[C@H](CCN2Cc2nccs2)[C@@H](CO)N3)cc1" ?
-46.9

Now this one: "CCN(C[C@@H]1[C@@H](c2ccccc2)[C@H](CO)N1C(C)=O)C(=O)NC(C)C"
-4.96

Consider next the compound "COc1cccc(CNC(=O)[C@@H]2[C@@H](CO)[C@@H]3Cn4c(ccc(-c5ccncc5)c4=O)[C@H]2N3C(C)=O)c1" in the same way.
-3.74

Thanks! And "CN1CCN(C(=O)C[C@@H]2CC[C@@H]3[C@H](COC[C@H](O)CN3CC3CCOCC3)O2)CC1" ?
7.66

Field entry: "CO[C@@H]1CN(C)C(=O)c2cc(NS(=O)(=O)c3cn(C)cn3)ccc2OC[C@@H](C)N(CCC(F)(F)F)C[C@H]1C"
2.8

Then "O=C(CN1CCOCC1)N1CCCCN2[C@H](CO)[C@H](c3ccc(Br)cc3)[C@H]2C1" ?
9.07

Also check "CN1C(=O)c2cc(NS(=O)(=O)c3ccc(Cl)cc3)ccc2OC[C@H]2O[C@@H](CC(=O)O)CC[C@H]21"
2.17

Note, next up: "CS(=O)(=O)N1C[C@@H](O)COC[C@@H]2O[C@H](CC(=O)NC3Cc4ccccc4C3)CC[C@H]21"
6.74

And the next one, "Cn1cnc(CCNC(=O)C[C@H]2CC[C@H]3[C@@H](COC[C@H](O)CN3C(=O)C3CCCC3)O2)c1" ?
4.42

# iterate: "COc1ccc(NC(=O)N2C[C@H](O)COC[C@@H]3O[C@@H](CC(=O)NCc4ccccc4OC)CC[C@H]32)cc1"
2.52

Now the same for "C[C@H](NC(=O)C[C@@H]1C=C[C@H](NC(=O)CN2CCOCC2)[C@H](CO)O1)c1ccccc1"
4.92

// repeat for "COc1ccccc1CN1CC[C@@H]2[C@@H](CO)Nc3ccc(C#Cc4ccccc4)cc3[C@@H]21" and report
-0.512
